System: 233499-124-R-J3-PDC spheroids with HUVEC/MSC, viability
Assay: Anticancer human tumor 233499-124-R-J3-PDC patient-derived colon adenocarcinoma cell line growth inhibition [PI3K]
Settings: curve of first compound; second compound 0.0316 µM
pIC50: −log10 of the molar value.
QUANTITY MEASURED: pIC50

Before answering, review these 2 worked examples.
MOLECULE	TARGET OR TEST SYSTEM	pIC50
Cn1nccc1Nc1nccc(-c2ccn(C(CO)c3ccc(Cl)c(F)c3)c(=O)c2)n1 (stereo not drawn) + CC(Nc1ncnc2nc[nH]c12)c1cc2cccc(Cl)c2c(=O)n1-c1ccccc1	233499-124-R-J3-PDC spheroids with HUVEC/MSC, viability	< 5.00
Cn1ncnc1[C@H]1c2n[nH]c(=O)c3cc(F)cc(c23)N[C@@H]1c1ccc(F)cc1 + COc1c(OCCCN2CCOCC2)ccc2c3n(c(=NC(=O)c4cnc(N)nc4)nc12)CCN3	233499-124-R-J3-PDC spheroids with HUVEC/MSC, viability	< 7.00

Next molecule, please.
Query: Give reported pIC50 value for CC(=O)c1c(C)c2cnc(Nc3ccc(N4CCNCC4)cn3)nc2n(C2CCCC2)c1=O + CC(Nc1ncnc2nc[nH]c12)c1cc2cccc(Cl)c2c(=O)n1-c1ccccc1
Reply: < 7.00

====

Tested on: 233499-124-R-J3-PDC spheroids with HUVEC/MSC, viability
Assay: Anticancer human tumor 233499-124-R-J3-PDC cell line growth inhibition [PI3K];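 note: spheroids exposed to agents for seven days before readout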;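 for viability, T/C: percent viability relative to DMSO vehicle control taken as 100%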
Conditions: second compound 1 µM; first compound 0.00316 µM; stronger effect = lower value
Lab note: cut-off is 60%. Strictly less in viability, T/C is yes. Exactly 60% or more is no.

> print(dat)
                                   molecule  group
1  CC(=O)c1c(C)c2cnc(Nc3ccc(N4CCNCC4)cn3)nc2n(C2CCCC2)c1=O + CC(Nc1ncnc2nc[nH]c12)c1cc2cccc(Cl)c2c(=O)n1-c1ccccc1     no
2  CC(C)n1nc(-c2ccc3oc(N)nc3c2)c2c(N)ncnc21 + CC(Nc1ncnc2nc[nH]c12)c1cc2cccc(Cl)c2c(=O)n1-c1ccccc1     no
3  Cn1ncnc1[C@H]1c2n[nH]c(=O)c3cc(F)cc(c23)N[C@@H]1c1ccc(F)cc1 + Cc1nc(NC(=O)N2CCCC2C(N)=O)sc1-c1ccnc(C(C)(C)C(F)(F)F)c1    yes
4  CC(=O)c1c(C)c2cnc(Nc3ccc(N4CCNCC4)cn3)nc2n(C2CCCC2)c1=O + CC(Nc1ccc2c(c1)OCCn1cc(N3C(=O)OCC3C(F)F)nc1-2)C(N)=O    yes

Then this molecule:
Query: API: query returns whether the molecule falls strictly under 60% in viability, T/C. Query: CCN1CCN(Cc2ccc(Nc3ncc(F)c(-c4cc(F)c5nc(C)n(C(C)C)c5c4)n3)nc2)CC1 + CC(Nc1ccc2c(c1)OCCn1cc(N3C(=O)OCC3C(F)F)nc1-2)C(N)=O
Reply: yes

====

Tested on: 233499-124-R-J3-PDC spheroids with HUVEC/MSC, viability
Assay: Anticancer human tumor 233499-124-R-J3-PDC cell line growth inhibition [PI3K];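 note: spheroids exposed to agents for seven days before readout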;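 for viability, T/C: percent viability relative to DMSO vehicle control taken as 100%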
Conditions: second compound 0.1 µM; first compound 0.1 µM; stronger effect = lower value
QUANTITY MEASURED: viability, T/C (%)
Report the figure in % without appending any unit label.

Before answering, review these 4 worked examples.
COMPOUND	viability, T/C [%]
Cn1ncnc1[C@H]1c2n[nH]c(=O)c3cc(F)cc(c23)N[C@@H]1c1ccc(F)cc1 + CC(Nc1ncnc2nc[nH]c12)c1cc2cccc(Cl)c2c(=O)n1-c1ccccc1	72.2
CC(Cn1ccc(-c2ccc(C#N)c(Cl)c2)n1)NC(=O)c1cc(C(C)O)[nH]n1 (stereo not given) + COc1c(OCCCN2CCOCC2)ccc2c3n(c(=NC(=O)c4cnc(N)nc4)nc12)CCN3	74.1
Cn1ncc(Cl)c1-c1cc(C(=O)NC(CN)Cc2cccc(F)c2)sc1Cl (stereo not given) + Cc1nc(NC(=O)N2CCCC2C(N)=O)sc1-c1ccnc(C(C)(C)C(F)(F)F)c1	86.6
CCCS(=O)(=O)Nc1ccc(F)c(C(=O)c2c[nH]c3ncc(-c4ccc(Cl)cc4)cc23)c1F + CC(Nc1ncnc2nc[nH]c12)c1cc2cccc(Cl)c2c(=O)n1-c1ccccc1	100

Next compound, please.
Query: Give reported viability, T/C value for CC1(C)CCC(Nc2ncc(C(F)(F)F)c(-c3c[nH]c4c(P(C)(C)=O)c(C#N)ccc34)n2)CN1 (stereo not given) + CC(Nc1ccc2c(c1)OCCn1cc(N3C(=O)OCC3C(F)F)nc1-2)C(N)=O
Reply: 40.7
